Source listed as PubChem BioAssay (NCI).

- System: SNB-19 CNS
- METHOD: NCI-60 one-dose screen, 48 h (100 = growth as untreated, 0 = no growth, -100 = all killed)
- CONDITION_SET: 10 µM unless noted
Compounds without any hit were thinned out: in the full panel of roughly 83,000, 20% have a hit.
Assign class by growth: not lower than 70% means MET; lower than 70% means NOT MET.

MOLECULAR_STRING	CLASS
CSc1nc(-c2ccc(F)cc2)c(C#N)c(N2CCOCC2)n1	MET
C[C@]12CC[C@@H]3c4ccc(O)cc4CC[C@H]3[C@@H]1C[C@H](O)C2	NOT MET
CCC1=C[C@H]2CN(CCc3c([nH]c4ccccc34)[C@@](C(=O)OC)(c3cc4c(cc3OC)N(C)[C@H]3[C@@](O)(C(=O)OC)[C@H](OC(C)=O)[C@]5(CC)[C@@H]6C[C@@H]6CN6CC[C@]43[C@@H]65)C2)C1	NOT MET
COc1ccc(Nc2nc(SCC(C)C)nc(-c3ccc(F)cc3)c2C#N)cc1	NOT MET
O=C(N/N=C/C[C@@H]1[C@@H](/C=C/[C@@H](O)COc2cccc(Cl)c2)[C@H](O)C[C@@H]1O)c1ccncc1	MET
COc1cc2c(cc1OCCCOc1cc3c(cc1OC)C(=O)N1CC(F)(F)C[C@H]1C=N3)N=C[C@@H]1CC(F)(F)CN1C2=O	NOT MET
COc1cccc(NC(=O)Nc2ccc(Nc3ncnc4[nH]c(C)c(C)c34)cc2)c1	MET

###

- System: SF-295 CNS
- METHOD: NCI-60 one-dose screen, 48 h
- CONDITION_SET: 10 µM unless noted
The panel holds about 83,000 compounds, 20% with a hit somewhere; the sample as a whole holds those more often. Calls of active or inactive are those of the source. The calls were made as follows: active = growth percent below 10; inactive = the rest.
Possible outcomes: active, inactive

In [3]: df
Out[3]:
                                    compound     class
 0  CC(=O)c1ccc(NC(=O)CSc2nnc(-c3cc(-c4ccc(Cl)cc4)nc4ccccc34)o2)cc1  inactive
 1  CCCn1cc(/C=N\N=C2\C(=O)Nc3ccc(C)cc32)c2ccccc21  inactive
 2  Cc1nc2sc(C(=O)Nc3cccc4ccccc34)c(N)c2cc1C(C)O (stereo unspecified)  inactive
 3  N#CC(C#N)=C1NC(c2ccccc2)=C(c2ccccc2)C(c2ccccc2Cl)=C1C#N  inactive
 4       Cc1[nH]c(N=Nc2ccccc2)nc1N=Nc1ccccc1  inactive
 5  COc1ccc2nc(-c3ccc(OC)c(OC)c3)cc(-c3nnc(SCC(=O)Nc4ccc(C(C)=O)cc4)o3)c2c1  inactive
 6  C=C(C)[C@@H]1CC[C@]2(C(=O)n3ccnc3)CC[C@]3(C)[C@H](CC[C@@H]4[C@@]5(C)CCCNC(C)(C)[C@@H]5CC[C@]43C)[C@@H]12    active
 7  O=C(CN1N=C(c2ccc(F)cc2)CCC1=O)Nc1nc2ccccc2s1    active
 8  O=C1c2ccccc2C(=O)c2c1oc1c2c(=O)[nH]c2ccccc21  inactive
 9  CCOC(=O)c1cnn(-c2nc(-c3ccc(F)cc3)c(C#N)c(N3CCOCC3)n2)c1N  inactive
10  C=CCn1c(SCC(=O)Nc2ccc(C(=O)/C=C/c3cc(OC)c(OC)c(OC)c3)cc2)nnc1-c1ccccc1  inactive
